Listed compounds paired with reported efflux ratio at 120 min, 1 μM
Biological target: MDR1 (Homo sapiens (Human))
Sequence (P08183 whole entry): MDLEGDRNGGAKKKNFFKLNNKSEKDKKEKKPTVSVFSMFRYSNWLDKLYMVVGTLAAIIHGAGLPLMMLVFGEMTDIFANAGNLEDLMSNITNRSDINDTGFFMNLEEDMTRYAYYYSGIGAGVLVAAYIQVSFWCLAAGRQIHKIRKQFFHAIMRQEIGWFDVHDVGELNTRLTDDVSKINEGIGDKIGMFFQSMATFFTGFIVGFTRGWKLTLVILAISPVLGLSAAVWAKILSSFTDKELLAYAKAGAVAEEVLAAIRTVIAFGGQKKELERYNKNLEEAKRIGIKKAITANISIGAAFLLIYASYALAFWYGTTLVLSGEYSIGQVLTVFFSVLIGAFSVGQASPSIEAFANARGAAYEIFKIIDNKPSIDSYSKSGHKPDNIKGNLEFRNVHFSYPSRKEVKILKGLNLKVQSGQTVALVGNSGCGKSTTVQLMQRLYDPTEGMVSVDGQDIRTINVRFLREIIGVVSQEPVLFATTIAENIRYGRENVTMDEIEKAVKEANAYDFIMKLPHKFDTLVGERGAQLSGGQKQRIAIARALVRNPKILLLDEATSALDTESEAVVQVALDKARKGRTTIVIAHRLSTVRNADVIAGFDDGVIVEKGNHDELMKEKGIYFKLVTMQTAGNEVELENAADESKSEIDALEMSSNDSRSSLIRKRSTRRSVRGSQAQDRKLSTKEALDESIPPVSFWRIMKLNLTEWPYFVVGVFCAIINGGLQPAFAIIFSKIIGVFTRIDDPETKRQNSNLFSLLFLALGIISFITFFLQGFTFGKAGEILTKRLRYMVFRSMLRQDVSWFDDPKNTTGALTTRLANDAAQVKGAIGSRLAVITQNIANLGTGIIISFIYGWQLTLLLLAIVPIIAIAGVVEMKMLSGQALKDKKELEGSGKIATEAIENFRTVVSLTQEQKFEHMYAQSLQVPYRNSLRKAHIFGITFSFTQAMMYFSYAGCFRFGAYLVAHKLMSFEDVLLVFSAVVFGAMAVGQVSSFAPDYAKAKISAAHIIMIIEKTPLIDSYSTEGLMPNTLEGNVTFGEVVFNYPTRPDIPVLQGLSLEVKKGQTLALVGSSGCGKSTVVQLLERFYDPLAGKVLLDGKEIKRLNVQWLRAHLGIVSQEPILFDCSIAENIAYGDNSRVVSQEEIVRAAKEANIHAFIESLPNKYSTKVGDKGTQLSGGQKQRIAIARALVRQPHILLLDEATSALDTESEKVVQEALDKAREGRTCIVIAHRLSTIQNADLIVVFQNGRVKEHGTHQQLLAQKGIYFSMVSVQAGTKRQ
Test: in vitro
Details: MDCK-MDR1
metricName: efflux ratio at 120 min, 1 μM

                                   compound  recordednumber
0  CC[C@@H](C)Oc1nc2nc(C34COC(C)(C3)C4)cn2cc1C(=O)Nc1cccn([C@H]2C[C@H]2F)c1=O (single isomer, unassigned)               9
1  O=C(Nc1cccn(C2CC2F)c1=O)c1cn2cc([C@]34CO[C@](CF)(C3)C4)nc2nc1OC1CCC1 (mixture of isomers)            12.8
2  CC(C)Oc1nc2nc(C[C@H]3CCOC3)cn2cc1C(=O)Nc1cccn(C2CC2)c1=O (single isomer, unassigned)               7
3  CC(C)Oc1c(C(=O)Nc2ccnn(C3CC3)c2=O)cn2cc(C34COC(C)(C3)C4)nc2c1F               1
4  CC(C)Oc1nc2nc(C34CCC(C)(CC3)OC4)cn2cc1C(=O)Nc1ccn(C)n1 [Comparator 6C, reference compound]             1.8
5  Cc1cnc2c(NC(=O)c3cn4cc(C56CCC(C)(CC5)OC6)nc4cc3OC(C)C)cnn2c1 [Comparator 5B, reference compound]             1.4

---

Target: MDR1 (Homo sapiens (Human))
Assay: in vitro
Details: MDCK-MDR1
Counter-ions that a name gives are not always drawn.
metricName: efflux ratio at 120 min, 1 μM

compound	recordedNumber
CC[C@H](C)Oc1nc2nc([C@]34CC[C@](C)(C3)OC4)cn2cc1C(=O)Nc1cccn(C2CC2)c1=O [Example 50]	2.9
CC(C)Oc1cc2nc([C@@]34CC[C@@](C)(C3)OC4)cn2cc1C(=O)Nc1cccn([C@@H]2C[C@H]2F)c1=O [Example 116]	5.3
CC(Oc1cc2nc(C34COC(C)(C3)C4)cn2cc1C(=O)Nc1cccn(C2CC2)c1=O)C(F)F (stereo not shown) [Example 102]	10.8
CC12CC(c3cn4cc(C(=O)Nc5cccn([C@@H]6C[C@@H]6F)c5=O)c(OC5CCC5)nc4n3)(CO1)C2 (single isomer, unassigned) [Example 113]	8.7
CC[C@@H](C)Oc1nc2nc(C34CCC(CF)(C3)OC4)cn2cc1C(=O)Nc1cccn(C2CC2)c1=O (stereo partly shown) [Example 55]	4.7
CC(C)Oc1cc2nc(C34COC(C)(C3)C4)cn2cc1C(=O)Nc1ccnn(C2CC2)c1=O [Example 76]	3.6
CC[C@H](C)Oc1cc2nc(C34COC(C)(C3)C4)cn2cc1C(=O)Nc1cccn(C2CC2F)c1=O (mixture of isomers) [Example 96]	10.4
CC(C)Oc1cc2nc([C@@H]3COCCO3)cn2cc1C(=O)Nc1cccn(C2CC2)c1=O (single isomer, unassigned) [Example 69]	4.7
CC(C)Oc1cc2nc(C34CCC(C)(CC3)OC4)cn2cc1C(=O)Nc1cccn(C)c1=O [Comparator 5D, reference compound]	2
CC(C)Oc1cc2nc([C@@]34CC[C@@](CF)(C3)OC4)cn2cc1C(=O)Nc1cccn(C2CC2)c1=O (single isomer, unassigned) [Example 7]	5
CC12CC(c3cn4cc(C(=O)Nc5ccnn(C6CC6)c5=O)c(OC5CCC5)nc4n3)(CO1)C2 [Example 72]	1.7
CC(C)Oc1cc2nc(C34COC(C)(C3)C4)cn2cc1C(=O)Nc1cccn(C)c1=O [Comparator 1D, reference compound]	8
CC(C)Oc1nc2nc([C@@]34CC[C@@](C)(C3)OC4)cn2cc1C(=O)Nc1cccn([C@H]2C[C@@H]2C)c1=O (single isomer, unassigned) [Example 149]	2.8
CC(C)Oc1cc2nc([C@@]34CC[C@@](C)(C3)OC4)cn2cc1C(=O)Nc1cccn([C@H]2C[C@H]2C)c1=O [Example 182, trifluoroacetate]	3.9
CC(C)Oc1nc2nc([C@@]34CC[C@@](C)(C3)OC4)cn2cc1C(=O)Nc1ccn(C)n1 (single isomer, unassigned) [Comparator 4C, reference compound]	4.6
CC(C)Oc1c(C(=O)Nc2cccn([C@@H]3C[C@@H]3F)c2=O)cn2cc(C34COC(C)(C3)C4)nc2c1F (racemic) [Example 91]	5.1
CC(C)Oc1cc2nc([C@]34CC[C@](C)(C3)OC4)cn2cc1C(=O)Nc1cccc(C(F)F)n1 (single isomer, unassigned) [Comparator 3A, reference compound]	0.7
CC(C)Oc1cc2nc(C34CC(C#N)(C3)C4)cn2cc1C(=O)Nc1cccn(C2CC2)c1=O [Example 80]	4.9
CC[C@H](C)Oc1cc2nc([C@@]34CC[C@@](C)(C3)OC4)cn2cc1C(=O)Nc1cccn(C2CC2)c1=O (single isomer, unassigned) [Example 22]	4.3
Cc1cnc2c(NC(=O)c3cn4cc([C@@]56CC[C@@](C)(C5)OC6)nc4cc3OC(C)C)cnn2c1 (single isomer, unassigned) [Comparator 3B, reference compound]	2
CC(C)Oc1cc2nc(C34COC(C)(C3)C4)cn2cc1C(=O)Nc1cccn(C2CC2)c1=O [Example 6]	7.9
CC(C)Oc1cc2nc([C@]34CC[C@](C)(C3)OC4)cn2cc1C(=O)Nc1cccn([C@H]2C[C@H]2C)c1=O [Example 180, trifluoroacetate]	2.6
CC(C)Oc1cc2nc([C@@]34CC[C@@](C)(C3)OC4)cn2cc1C(=O)Nc1ccn(C)n1 (single isomer, unassigned) [Comparator 3C, reference compound]	6.3
Cc1cnc2c(NC(=O)c3cn4cc(C56COC(C)(C5)C6)nc4cc3OC(C)C)cnn2c1 [Comparator 1B, reference compound]	4.3
C[C@@H]1C[C@@H]1n1cccc(NC(=O)c2cn3cc(C45COC(C)(C4)C5)nc3cc2OC2CCC2)c1=O [Example 190, trifluoroacetate]	4.1

The origin of these recorded values is patent US20240116922A1.
